Target: MAD53 (UniProt Q9TTA5)
Sequence (Q9TTA5 whole entry, looked up): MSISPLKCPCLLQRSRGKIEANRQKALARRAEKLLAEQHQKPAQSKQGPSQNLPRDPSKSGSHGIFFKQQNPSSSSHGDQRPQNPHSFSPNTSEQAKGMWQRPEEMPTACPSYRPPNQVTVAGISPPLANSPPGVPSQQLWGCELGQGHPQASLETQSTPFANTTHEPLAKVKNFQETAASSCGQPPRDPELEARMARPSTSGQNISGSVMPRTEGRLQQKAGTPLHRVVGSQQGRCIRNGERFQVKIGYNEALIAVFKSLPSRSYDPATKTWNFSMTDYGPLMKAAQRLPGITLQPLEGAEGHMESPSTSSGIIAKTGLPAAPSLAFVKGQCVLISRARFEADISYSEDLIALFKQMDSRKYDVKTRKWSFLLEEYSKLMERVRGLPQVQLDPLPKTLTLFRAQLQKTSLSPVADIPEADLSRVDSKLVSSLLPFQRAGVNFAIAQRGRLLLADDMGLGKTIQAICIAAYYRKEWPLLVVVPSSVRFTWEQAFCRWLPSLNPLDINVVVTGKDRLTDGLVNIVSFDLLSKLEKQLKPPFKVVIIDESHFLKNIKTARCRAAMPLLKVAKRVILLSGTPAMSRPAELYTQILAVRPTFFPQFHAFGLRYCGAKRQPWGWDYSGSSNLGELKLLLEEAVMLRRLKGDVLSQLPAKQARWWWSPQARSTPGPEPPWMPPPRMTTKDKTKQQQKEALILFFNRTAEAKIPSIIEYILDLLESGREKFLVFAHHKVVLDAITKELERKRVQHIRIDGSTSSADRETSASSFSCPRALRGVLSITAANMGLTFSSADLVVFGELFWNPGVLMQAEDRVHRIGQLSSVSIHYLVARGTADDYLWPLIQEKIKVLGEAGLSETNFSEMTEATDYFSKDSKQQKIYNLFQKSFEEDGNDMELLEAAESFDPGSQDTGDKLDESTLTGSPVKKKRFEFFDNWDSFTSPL
Assay: intrinsic tryptophan fluorescence quenching
Settings: Fluorescence at 25 C (Cary-Varian spectrofluorimeter); buffer, salt and pH not given (as in ref 13)
Quantity Measured: Kd (nM)
Give the number; nM is assumed, so skip it.

Input GCGCAATTGCGCTCGACGATTTTTTAGCGCAATTGCGC [slDNA (stem-loop DNA)] . Output Kd: 8.2

Data origin: paper PMC3509132
